Measured concentration at 0.5 h values are reported for all entries that follow.
assayRemarks: Pharmacokinetic test in rats, intravenous injection
Assay type: in vivo, SD rats
conditionDetails: male, Sprague-Dawley, rat, plasma, intravenous, 2 mg/kg, 2 mg/kg iv, 0.5 h, individual rats; read-out: Concentrations in Plasma of Rats after Intravenous Injection
Express the result in ng/mL but write the number alone.

>>> quantitativeresult("[2H]C([2H])([2H])c1ccc(Sc2ccccc2N2CCNCC2)c(C([2H])([2H])[2H])c1")
76.6

Req: May I ask what concentration at 0.5 h has been recorded for Cc1ccc(Sc2ccccc2N2CCNCC2)c(C)c1 ?
Resp: 76.6

---

assayRemarks: Pharmacokinetic test in rats, gavage administration
Type: in vivo, SD rats
conditionDetails: both sexes, Sprague-Dawley, rat, plasma, oral, 20 mg/kg, 20 mg/kg oral, 1 h, mean of 6 rats; read-out: Concentrations in Plasma of Rats after Oral Administration, Mean ± SD
readoutType: concentration at 1 h (ng/mL)
Express the result in ng/mL but write the number alone.

>>> quantitativeresult("Cc1ccc(Sc2ccccc2N2CCNCC2)c(C)c1")
82.6

Turning to the following molecule.
Req: May I ask what concentration at 1 h has been recorded for [2H]C([2H])([2H])c1ccc(Sc2ccccc2N2CCNCC2)c(C([2H])([2H])[2H])c1 ?
Resp: 95.8

---

assayRemarks: Pharmacokinetic test in rats, intravenous injection
Format: in vivo, SD rats
conditionDetails: male, SD, rat, plasma, intravenous, 2 mg/kg, 2 mg/kg iv, 0.05 h, mean; read-out: Concentrations in Plasma of Rats after Intravenous Injection, Mean ± SD
Measured concentration at 0.05 h values are reported for all entries that follow.
Express the result in ng/mL but write the number alone.

>>> quantitativeresult("[2H]C([2H])([2H])c1ccc(Sc2ccccc2N2CCNCC2)c(C([2H])([2H])[2H])c1")
126

Req: May I ask what concentration at 0.05 h has been recorded for Cc1ccc(Sc2ccccc2N2CCNCC2)c(C)c1 ?
Resp: 214

---

Measured concentration at 6 h values are reported for all entries that follow.
assayRemarks: Pharmacokinetic test in rats, intravenous injection
Format: in vivo, SD rats
conditionDetails: male, SD, rat, plasma, intravenous, 2 mg/kg, 2 mg/kg iv, 6 h, individual rats; read-out: Concentrations in Plasma of Rats after Intravenous Injection
Express the result in ng/mL but write the number alone.

>>> quantitativeresult("[2H]C([2H])([2H])c1ccc(Sc2ccccc2N2CCNCC2)c(C([2H])([2H])[2H])c1")
25.8

Turning to the following molecule.
Req: May I ask what concentration at 6 h has been recorded for Cc1ccc(Sc2ccccc2N2CCNCC2)c(C)c1 ?
Resp: 25.8

---

assayRemarks: Pharmacokinetic test in rats, gavage administration
Assay type: in vivo, SD rats
conditionDetails: both sexes, Sprague-Dawley, rat, plasma, oral, 20 mg/kg, 20 mg/kg oral, 24 h, mean of 6 rats; read-out: Concentrations in Plasma of Rats after Oral Administration, Mean ± SD
Measured concentration at 24 h values are reported for all entries that follow.
Express the result in ng/mL but write the number alone.

>>> quantitativeresult("[2H]C([2H])([2H])c1ccc(Sc2ccccc2N2CCNCC2)c(C([2H])([2H])[2H])c1")
0.75

Req: May I ask what concentration at 24 h has been recorded for Cc1ccc(Sc2ccccc2N2CCNCC2)c(C)c1 ?
Resp: 0.64

---

assayRemarks: Pharmacokinetic test in rats, intravenous injection
Format: in vivo, SD rats
conditionDetails: male, Sprague-Dawley, rat, plasma, intravenous, 2 mg/kg, 2 mg/kg iv, 0.25 h, individual rats; read-out: Concentrations in Plasma of Rats after Intravenous Injection
Measured concentration at 0.25 h values are reported for all entries that follow.
In your response, the unit should come after the numeric value.

>>> result("[2H]C([2H])([2H])c1ccc(Sc2ccccc2N2CCNCC2)c(C([2H])([2H])[2H])c1")
"78.1 ng/mL"

Turning to the following compound.
Req: May I ask what concentration at 0.25 h has been recorded for Cc1ccc(Sc2ccccc2N2CCNCC2)c(C)c1 ?
Resp: 78.1 ng/mL

---

assayRemarks: Pharmacokinetic test in rats, gavage administration
Format: in vivo, SD rats
conditionDetails: both sexes, Sprague-Dawley, rat, plasma, oral, 20 mg/kg, 20 mg/kg oral, 6 h, individual rats 1-6; read-out: Concentrations in Plasma of Rats after Oral Administration
readoutType: concentration at 6 h (ng/mL)
Express the result in ng/mL but write the number alone.

Req: May I ask what concentration at 6 h has been recorded for [2H]C([2H])([2H])c1ccc(Sc2ccccc2N2CCNCC2)c(C([2H])([2H])[2H])c1 [XX] ?
Resp: 46.1
